Hello, the source for this data is ChEMBL document CHEMBL1201862, in case you need it.

system: Hs-578T; experiment: NCI tumour cell line growth inhibition, 48 h
Calls of active or inactive are those of the source. Rule as the data show it: active = GI50 up to about 1.1 µM and inactive = higher.
Possible outcomes: active, inactive

{"compound": "CC1(C)O[C@@H](CBr)C[C@H](C[C@H]2C[C@@H](O)C[C@@H](CCOCc3ccccc3)O2)O1", "assay_target": "Hs-578T", "label_value": "inactive"}
{"compound": "COc1ccc2c(c1)/C(=C\\c1c(Cl)n(-c3ccccc3)c3ccccc13)C(=O)N2", "assay_target": "Hs-578T", "label_value": "active"}
{"compound": "CCOC(=O)c1ccc(Nc2c3c(nc4ccccc24)CCCC3)cc1", "assay_target": "Hs-578T", "label_value": "inactive"}
{"compound": "CCO/N=C\\c1ccc2oc(-c3ccccc3)cc(=O)c2c1", "assay_target": "Hs-578T", "label_value": "active"}
{"compound": "COc1ccc(C(OCC2OC(n3cc(C)c(=O)[nH]c3=O)CC2n2cc(Cn3cc(I)c(=O)[nH]c3=O)nn2)(c2ccccc2)c2ccccc2)cc1 (centres undefined)", "assay_target": "Hs-578T", "label_value": "inactive"}
{"compound": "Cc1cc2c(cc1Cl)SC(NS(=O)(=O)c1ccc(Cl)cc1)=NS2(=O)=O", "assay_target": "Hs-578T", "label_value": "inactive"}
{"compound": "Cc1nc(Nc2ccccc2Cl)sc1C(=O)CC(=O)C(=O)Nc1c(Cl)cccc1Cl", "assay_target": "Hs-578T", "label_value": "inactive"}
{"compound": "CC(C)C1=C(Cc2ccccc2)C(=O)O/C1=C\\c1ccc(O)c(Cl)c1", "assay_target": "Hs-578T", "label_value": "inactive"}
{"compound": "COc1cc(CNc2nc3cc(C(F)(F)F)ccc3nc2C(=O)O)cc(OC)c1OC", "assay_target": "Hs-578T", "label_value": "inactive"}
{"compound": "COc1cccc(NC(=O)CC(=O)n2nc(-c3ccccc3)c(/N=N/c3ccc(Cl)cc3)c2-c2ccccc2)c1", "assay_target": "Hs-578T", "label_value": "inactive"}
{"compound": "COC(=O)[C@]12CC[C@H]3CN(C(=O)OCc4ccccc4)[C@H]([C@H]31)[C@H](c1ccco1)N2S(=O)(=O)c1ccc(C)cc1", "assay_target": "Hs-578T", "label_value": "inactive"}
{"compound": "CCN1C(=O)C(=Cc2ccc(-c3ccccc3)cc2)C(=O)N(CC)C1=S", "assay_target": "Hs-578T", "label_value": "inactive"}
{"compound": "COc1cc2nc(-c3cccs3)nc(Cl)c2cc1OC", "assay_target": "Hs-578T", "label_value": "inactive"}
{"compound": "CCC12CN(C(=O)OC)C3C(Br)C1CCC(=O)C32 (centres undefined)", "assay_target": "Hs-578T", "label_value": "inactive"}
{"compound": "CC(C)=C1C2CC3(C)CCC2(C)CCC13.CC1=CCC2C3(C)CCC2(C(C)C)C1C3 (centres undefined)", "assay_target": "Hs-578T", "label_value": "inactive"}
{"compound": "O=S(=O)(O)CCCC1S(=O)(=O)OCCOS1(=O)=O", "assay_target": "Hs-578T", "label_value": "inactive"}
{"compound": "Nc1nc(=O)n(C2OC(CO)C(O)C2O)c2ncc(-c3ccc(-c4ccccc4)cc3)nc12 (centres undefined)", "assay_target": "Hs-578T", "label_value": "inactive"}
{"compound": "CC[C@H](C)C(=O)O[C@H]1CCC=C2C=C[C@H](C)[C@H](CC[C@@H]3C[C@@H](O)CC(=O)O3)[C@H]21", "assay_target": "Hs-578T", "label_value": "inactive"}
{"compound": "O=[N+]([O-])c1cccc2nc3ccccc3c(NCCCN3CCOCC3)c12", "assay_target": "Hs-578T", "label_value": "active"}
